biological target: phosphodiesterase; assay: Phosphodiesterase inhibition, cyclic GMP substrate; assay type: biochemical; conditions: 1 μM substrate; read-out: I50 Cyclic GMP
Let's look at some compounds and their measured IC50.
Answer in µM, number only, no unit symbol.

# Compound, Unit text, IC50
measured = [
    ("O=c1cc(-c2ccc(O)c(-c3c(O)cc(O)c4c(=O)cc(-c5ccc(O)cc5)oc34)c2)oc2cc(O)cc(O)c12 [Amentoflavone, amentoflavone]", "µM", 0.58),
    ("O=C(O)c1cc(=O)c2c(OCC(O)COc3cccc4oc(C(=O)O)cc(=O)c34)cccc2o1 [Cromoglycate Na, reference compound]", "µM", 235),
]

Request: Form field: reported IC50 of COc1ccc(Cc2nccc3cc(OC)c(OC)cc23)cc1OC [Papaverine, reference compound]
Result: 12.4

====

Let's look at some compounds and their measured IC50.
molecular target: phosphodiesterase; assay: Phosphodiesterase inhibition, cyclic AMP substrate; assay type: biochemical; settings: 1 μM substrate; read-out: I50 Cyclic AMP

Recorded IC50, per entry:
# Compound, IC50
records = [
    ("O=C(O)c1cc(=O)c2c(OCC(O)COc3cccc4oc(C(=O)O)cc(=O)c34)cccc2o1 [Cromoglycate Na, reference compound]", "2000 µM"),
    ("COc1ccc(Cc2nccc3cc(OC)c(OC)cc23)cc1OC [Papaverine, reference compound]", "5 µM"),
]

API: the following record is the query input.
Request: Form field: reported IC50 of O=c1cc(-c2ccc(O)c(-c3c(O)cc(O)c4c(=O)cc(-c5ccc(O)cc5)oc34)c2)oc2cc(O)cc(O)c12
Result: 0.65 µM
